- systemUnderTest: Dual specificity protein phosphatase 6 (Rattus norvegicus) (UniProt Q64346)
- Sequence (Q64346 whole entry, looked up): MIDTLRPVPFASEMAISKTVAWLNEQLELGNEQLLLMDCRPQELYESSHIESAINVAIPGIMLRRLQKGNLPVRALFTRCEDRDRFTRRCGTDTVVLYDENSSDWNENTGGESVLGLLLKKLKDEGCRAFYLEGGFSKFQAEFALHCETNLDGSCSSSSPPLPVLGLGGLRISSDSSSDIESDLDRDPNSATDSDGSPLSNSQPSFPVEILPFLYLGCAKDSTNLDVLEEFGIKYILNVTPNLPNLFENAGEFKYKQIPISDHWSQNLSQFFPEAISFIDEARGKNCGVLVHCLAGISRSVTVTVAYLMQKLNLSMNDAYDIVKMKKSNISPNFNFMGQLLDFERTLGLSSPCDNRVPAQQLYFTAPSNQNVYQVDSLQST
- assayNotes: MKP-3 phosphatase inhibitors, primary screen, biochemical, rat enzyme, in vitro (AID 425);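 also: plate controls were vehicle for no effect and reference inhibitor for full effect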
- conditionSet: recombinant MKP-3 phosphatase activity, fluorescence; at 20 µM
About 190 (0.17%) of roughly 110,000 compounds were called active. Rule as the data show it: active = inhibition above about 50%; inactive = the rest. This is one part of a sample in which actives are shown more often than they occur. Measured potencies and affinities stand elsewhere.
Give one outcome, nothing more. List: 1 (yes) (active), 0 (no) (inactive)

O=C(c1ccc(S(=O)(=O)NCC2CCCO2)cc1)N1CCc2ccccc21 (stereo unspecified) | 0 (no)
COc1ccc(/C=C(\NC(=O)c2ccccc2)C(=O)NCC(C)C)cc1OC | 0 (no)
COc1ccc(/C=C/C(=O)NCC(C)NC(=O)/C=C/c2ccc(OC)c(OC)c2)cc1OC (stereo unspecified) | 0 (no)
O=C1NC(=O)/C(=C\c2cc3c(cc2[N+](=O)[O-])OCO3)S1 | 1 (yes)

Query: How was "Oc1ccc(N=Nc2ccc(Cl)cc2)c2cccnc12" classified in this test?
Response: 0 (no)

Query: How was "O=C(Nc1nncs1)c1cc(-c2ccccc2Cl)nc2ccccc12" classified in this test?
Response: 0 (no)

Query: How was "O=S(=O)(O)c1cccc2c(N=Cc3cc(Cl)cc(Cl)c3O)cccc12" classified in this test?
Response: 0 (no)

Query: How was CCC(C)NC(=O)/C(=C\c1ccc(OC(C)=O)c(OC)c1)NC(C)=O (stereo unspecified) classified in this test?
Response: 1 (yes)

Query: How was COc1cc(C(=O)N2CCN(C3C4CC5CC(C4)CC3C5)CC2)cc(OC)c1OC (stereo unspecified) classified in this test?
Response: 0 (no)

Query: How was "CCCCCCCCNC(=O)CCC(=O)O" classified in this test?
Response: 0 (no)

Query: How was "O=C1C(Nc2ccc(Cl)cc2)=C(N2CCOCC2)C(=O)c2ccccc21" classified in this test?
Response: 0 (no)

* * *

- systemUnderTest: Dual specificity protein phosphatase 6 (Rattus norvegicus) (UniProt Q64346)
- assayNotes: MKP-3 phosphatase inhibitors, primary screen, biochemical, rat enzyme, in vitro (AID 425);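 also: plate controls were vehicle for no effect and reference inhibitor for full effect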
- conditionSet: recombinant MKP-3 phosphatase activity, fluorescence; at 20 µM; stronger effect = higher value
About 190 (0.17%) of roughly 110,000 compounds were called active. For the sample, actives were picked, then their nearest neighbours and some compounds at random. Results with a measured potency or affinity are listed apart.
parameter: inhibition (%)
Quick note: give the figure in %, leave out the unit.

Use these answered entries as a reference point.
O=C(c1ccc(N2CCN(C(=O)c3ccccc3Br)CC2)cc1)c1cccc(F)c1 | 52.2
CCN(CC)C(=O)CSc1nc2cccnc2n1-c1ccccc1OC | -6.6
O=C1NC(=S)S/C1=C\c1ccccc1[N+](=O)[O-] | 122
N/C(=N/O)c1nc(N2CCCCC2)nc(N2CCCCC2)n1 | -8.2
CCOC(=O)c1c2c(n(C)c1CO)C(=O)C(=O)c1ccc(Br)cc1-2 | 120

Query: Look up inhibition: "O=[N+]([O-])c1cccc(S(=O)(=O)/N=C(/Nc2ccccc2)c2ccccc2)c1"
Response: 0.1

Query: Look up inhibition: "COc1ccccc1/C=C1\SC(=S)N(NC(=O)Cc2ccccc2)C1=O"
Response: 2.2

Query: Look up inhibition: "COc1ccc(/C=C2/SC(=O)N(CC(=O)Nc3ccc(F)c(Cl)c3)C2=O)cc1OC"
Response: 1.4

Query: Look up inhibition: "COc1cc(/C=N/NC(=O)Cc2nnc(N)s2)ccc1OCc1ccc(Cl)cc1Cl"
Response: 0.3

Query: Look up inhibition: "CNc1ccc2c(O)cc(S(=O)(=O)O)cc2c1"
Response: 65.1

Query: Look up inhibition: "Cc1ccc(-c2nnc(NC(=O)Nc3ccc(Cl)c(Cl)c3)s2)cc1"
Response: -1.5

Query: Look up inhibition: "CN(C)CCCNC(=O)c1ccc2sc3cc(=O)c(N)cc-3nc2c1"
Response: 84.1

Query: Look up inhibition: "COC(=O)c1cc(C(=O)OC)cc(S(=O)(=O)O)c1"
Response: -0.1

Query: Look up inhibition: "CCOC(=O)c1c2c(n(C)c1CNC(C)C)C(=O)C(=O)c1ccc(Br)cc1-2"
Response: 117

Query: Look up inhibition: O=S1(=O)N=C2CCCN2C(c2ccc(F)cc2)N1 (centres undefined)
Response: -14.7

Query: Look up inhibition: "c1ccc(Cn2ncc3c(N4CCN(c5ccccn5)CC4)ncnc32)cc1"
Response: 6.4

Query: Look up inhibition: "O=C1c2ccccc2C(=O)N1/N=C/c1ccc(Cl)c([N+](=O)[O-])c1"
Response: -2.1

Query: Look up inhibition: "O=C(Nc1ccc(Nc2ccccc2)cc1)c1cccc(F)c1"
Response: -0.3

Query: Look up inhibition: "CN(C)CCCNC(=O)c1cccc(F)c1"
Response: -3.1

Query: Look up inhibition: "Cn1cccc1Cc1nnc(SCC(=O)Nc2nc3ccccc3s2)n1CCc1ccccc1"
Response: -4.6

Query: Look up inhibition: "O=C(c1ccc(N2CCN(C(=O)c3ccccc3)CC2)cc1)c1cccc(F)c1"
Response: 4.8

Query: Look up inhibition: "O=c1oc2c(O)c(O)ccc2c2c1CCC2"
Response: 7.2

Query: Look up inhibition: "O=C1NC(=S)N/C1=C/c1cc2c(cc1[N+](=O)[O-])OCO2"
Response: 64.9

* * *

Examples of compounds with documented inhibition follow.
- systemUnderTest: Dual specificity protein phosphatase 6 (Rattus norvegicus) (UniProt Q64346)
- assayNotes: MKP-3 phosphatase inhibitors, primary screen, biochemical, rat enzyme, in vitro (AID 425);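 also: plate controls were vehicle for no effect and reference inhibitor for full effect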
- conditionSet: recombinant MKP-3 phosphatase activity, fluorescence; at 20 µM; stronger effect = higher value
Out of some 110,000 compounds screened, about 190 (0.17%) were called active. Only a selection was taken, and actives are over-represented in it overall. Potency and affinity values are given separately.
Quick note: give the figure in %, leave out the unit.

COc1cc2cc(=O)n(Cc3ccccc3)c(C)c2cc1OC | 70.3
COC(=O)c1ccc(C(=O)OC)c(N)c1 | -12.2
Cc1ccc(C)c(S(=O)(=O)NCc2cccnc2)c1 | -4.3
CCOc1ccc(N(CC(=O)NCc2ccc(Cl)cc2)S(=O)(=O)c2ccc(Br)cc2)cc1 | 54.4
CC(C)Cn1c(=S)[nH]c2sc3c(c2c1=O)CC(C)(C)OC3 | 3.9

Query: Look up inhibition: "COc1cc2c(=O)n(Cc3ccccc3)c(=O)n(CC(=O)C(C)(C)C)c2cc1OC"
Response: 4

Query: Look up inhibition: "CCOc1ccc(N(CC(=O)NCc2ccc(OC)cc2)S(=O)(=O)c2ccc(Br)cc2)cc1"
Response: -0.5

* * *

- systemUnderTest: Dual specificity protein phosphatase 6 (Rattus norvegicus)
- assayNotes: MKP-3 phosphatase inhibitors, primary screen, biochemical, rat enzyme, in vitro (AID 425);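 also: plate controls were vehicle for no effect and reference inhibitor for full effect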
- conditionSet: recombinant MKP-3 phosphatase activity, fluorescence; at 20 µM
Among all 110,000 compounds or so, about 190 (0.17%) were called active. No stated cut-off is given here; in the data, active means inhibition above about 50%; inactive means the rest. What follows is part of a selection rich in actives, with near analogues and random picks from the rest. Measured potencies and affinities stand elsewhere.
Give one outcome, nothing more. List: active, inactive

Example entries and their recorded answers appear below.
Cc1ccc(-n2[nH]c(=O)c(/C=c3/c(C)c(C#N)c4nc5ccccc5n4c3=O)c2O)cc1C | active
CCc1c(C)c2ccc(OCc3ccccc3)c(C)c2oc1=O | inactive
Cc1nonc1NC1(O)C(=O)c2ccccc2C1=O | active
COc1ccc(Cc2nnc(SCC(=O)N3CCN(c4ccccc4)CC3)o2)cc1 | inactive
COc1ccc(/C=N/NC(=O)c2cc(-c3ccc(Cl)cc3)n[nH]2)cc1 | inactive
CCNc1nc(NS(=O)(=O)c2ccc(C)cc2)nc(SC)n1 | inactive

Query: How was "CCOc1cccc(=[O+]CC)c2c(C)oc(C)c12" classified in this test?
Response: active

Query: How was "O=C(Nc1cccc2c1CCCC2)c1ccc(Br)cc1" classified in this test?
Response: inactive

Query: How was "COc1ccc(-n2c(C)cc(C)nc2=O)cc1" classified in this test?
Response: inactive

* * *

- systemUnderTest: Dual specificity protein phosphatase 6 (Rattus norvegicus) (UniProt Q64346)
- assayNotes: MKP-3 phosphatase inhibitors, primary screen, biochemical, rat enzyme, in vitro (AID 425);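 also: plate controls were vehicle for no effect and reference inhibitor for full effect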
- conditionSet: recombinant MKP-3 phosphatase activity, fluorescence; at 20 µM; stronger effect = higher value
The whole screen tested about 110,000 compounds, of which about 190 (0.17%) were called active. Shown is part of a subset that was picked to be rich in actives. Entries with a potency or affinity are not part of this list.
Tick 1 if inhibition is 60% or greater. Tick -1 if inhibition is less than 60%.

Example entries and their recorded answers appear below.
Cc1cc(N2C(=O)NC(=O)/C(=C\c3ccc([N+](=O)[O-])o3)C2=O)ccc1Br | 1
O=C1NC(=O)N(c2ccccc2)C(=O)/C1=C\c1ccc(Br)o1 | -1
CC(C)(C)c1cc(Br)ccc1OCC(=O)Nc1ccc2c(c1)OCCO2 | -1

Query: hey, is inhibition for this one >= 60%? O=C(CCCN1CCC(c2ccccc2)C1)c1ccc2c(c1)OCCO2 (stereo not given)
Response: -1
